Hey, just so you know, these numbers are from patent US5246989A.

test: Photochromic characteristics of cast polymethyl methacrylate film (coloration under mercury lamp, fading); type: physicochemical; details: PMMA film, 1.0×10^-4 mol/g, 0.1 mm; mercury lamp 60 seconds, 35° C.
endpoint.label: λ max (maximum absorption wavelength of the colored film)
Answer as a number with no unit attached.

Would you please look over these solved cases?
>>> test_result("CN1c2ccccc2C(C)(C)C12C=Nc1ccc3cnccc3c1O2 (stereo not shown) [Compound 53]")
615
>>> test_result("COC(=O)c1ccc2c(c1)C(C)(C)C1(C=Nc3ccc4ncccc4c3O1)N2C (stereo not shown) [Compound 52]")
611
>>> test_result("COC(=O)CCCCN1c2cc3[nH]ccc3cc2C2(CC3CCC2C3)C12C=Nc1cc(-c3ccccc3)c3ncccc3c1O2 (stereo not shown) [Compound 13]")
607

Lab note: next molecule to report on.
Query: GET /values?readout=λ max (maximum absorption wavelength of the colored film)&item= CN1c2cc3ncc(-c4ccsc4)cc3cc2C2(C3CC4CC(C3)CC2C4)C12C=Nc1ccc3ccccc3c1O2 (stereo not shown) [Compound 15]
Result: 607
